Origin of the recorded values: patent US10004732B2

Biological target: PI 3-kinase delta (Homo sapiens, UniProt O00329)
Sequence (O00329 whole entry, one chain of several): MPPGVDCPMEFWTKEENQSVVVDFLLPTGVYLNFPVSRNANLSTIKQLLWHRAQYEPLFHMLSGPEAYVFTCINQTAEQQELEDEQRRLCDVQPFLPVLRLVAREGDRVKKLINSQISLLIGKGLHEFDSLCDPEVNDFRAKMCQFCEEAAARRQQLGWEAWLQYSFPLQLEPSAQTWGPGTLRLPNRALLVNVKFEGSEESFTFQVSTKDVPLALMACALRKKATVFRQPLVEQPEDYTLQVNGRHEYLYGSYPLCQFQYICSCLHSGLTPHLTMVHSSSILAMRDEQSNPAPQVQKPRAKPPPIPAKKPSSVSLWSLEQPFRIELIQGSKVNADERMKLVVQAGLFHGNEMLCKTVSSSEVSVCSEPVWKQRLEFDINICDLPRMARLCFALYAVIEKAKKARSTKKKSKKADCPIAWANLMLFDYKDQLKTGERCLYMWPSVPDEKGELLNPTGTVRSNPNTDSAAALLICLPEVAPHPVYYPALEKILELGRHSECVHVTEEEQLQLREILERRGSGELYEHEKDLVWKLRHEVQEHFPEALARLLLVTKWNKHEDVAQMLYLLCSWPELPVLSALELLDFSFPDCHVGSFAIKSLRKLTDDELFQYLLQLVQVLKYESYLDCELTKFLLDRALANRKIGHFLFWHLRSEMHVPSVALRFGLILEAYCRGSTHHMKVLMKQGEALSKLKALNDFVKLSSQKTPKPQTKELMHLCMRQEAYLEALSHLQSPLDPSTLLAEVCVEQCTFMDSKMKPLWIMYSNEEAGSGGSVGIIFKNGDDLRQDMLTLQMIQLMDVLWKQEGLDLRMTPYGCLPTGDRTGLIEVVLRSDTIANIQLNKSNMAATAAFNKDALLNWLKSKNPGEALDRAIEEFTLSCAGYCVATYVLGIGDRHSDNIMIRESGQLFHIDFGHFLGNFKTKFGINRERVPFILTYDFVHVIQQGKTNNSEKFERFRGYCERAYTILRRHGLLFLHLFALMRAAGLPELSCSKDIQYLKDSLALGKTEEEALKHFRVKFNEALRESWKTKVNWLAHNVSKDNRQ
Test: Cellular assay J1, p-Akt (S473) in Rat-1 cells, Surefire format
Assay type: cell-based
Settings: non-asterisked data: version J1 (Surefire format), Rat-1 cells; read-out: Assay J PI3Kδ IC50
OBSERVABLE: IC50 (nM)

COMPOUND	VALUE UNITS	ENDPOINT VALUE
Cc1ccc(S(=O)(=O)NCC2(C)COC2)cc1-c1cnc(N)c(-c2cn(C)nc2C)n1 [Example 17]	nM	1920
COc1cc(-c2nc(-c3cc(S(=O)(=O)NCCC(C)(C)O)ccc3C)cnc2N)ccn1 [Example 119.3]	nM	870
COc1nc(-c2nc(-c3cc(S(=O)(=O)NCCC(C)(C)O)ccc3C)cnc2N)cs1 [Example 110]	nM	690
Cc1ccc(S(=O)(=O)NC[C@H]2C[C@@H](O)C2)cc1-c1cnc(N)c(-c2nc(C3CC3)no2)n1 [Example 94]	nM	2090
Cc1ccc(S(=O)(=O)NCCC(C)(C)O)cc1-c1cnc(N)c(-c2cnn(CCC(C)C)c2)n1 [Example 119.26]	nM	510
Cc1ccc(S(=O)(=O)NCCC(C)(C)O)cc1-c1cnc(N)c(-c2cccnc2Cl)n1 [Example 119.6]	nM	2880
Cc1ccc(S(=O)(=O)NC2CC3(CC(O)C3)C2)cc1-c1cnc(N)c(-c2cn(C)nc2C)n1 (single isomer, unassigned) [Example 9a]	nM	3530
Cc1ncc(-c2nc(-c3cc(S(=O)(=O)NCCC(C)(C)O)ccc3C)cnc2N)s1 [Example 119.29]	nM	470

* * *

Parameter: IC50. Scope: all listed entries.
Target: PI 3-kinase alpha (Homo sapiens, UniProt P42336)
Sequence (P42336 whole entry): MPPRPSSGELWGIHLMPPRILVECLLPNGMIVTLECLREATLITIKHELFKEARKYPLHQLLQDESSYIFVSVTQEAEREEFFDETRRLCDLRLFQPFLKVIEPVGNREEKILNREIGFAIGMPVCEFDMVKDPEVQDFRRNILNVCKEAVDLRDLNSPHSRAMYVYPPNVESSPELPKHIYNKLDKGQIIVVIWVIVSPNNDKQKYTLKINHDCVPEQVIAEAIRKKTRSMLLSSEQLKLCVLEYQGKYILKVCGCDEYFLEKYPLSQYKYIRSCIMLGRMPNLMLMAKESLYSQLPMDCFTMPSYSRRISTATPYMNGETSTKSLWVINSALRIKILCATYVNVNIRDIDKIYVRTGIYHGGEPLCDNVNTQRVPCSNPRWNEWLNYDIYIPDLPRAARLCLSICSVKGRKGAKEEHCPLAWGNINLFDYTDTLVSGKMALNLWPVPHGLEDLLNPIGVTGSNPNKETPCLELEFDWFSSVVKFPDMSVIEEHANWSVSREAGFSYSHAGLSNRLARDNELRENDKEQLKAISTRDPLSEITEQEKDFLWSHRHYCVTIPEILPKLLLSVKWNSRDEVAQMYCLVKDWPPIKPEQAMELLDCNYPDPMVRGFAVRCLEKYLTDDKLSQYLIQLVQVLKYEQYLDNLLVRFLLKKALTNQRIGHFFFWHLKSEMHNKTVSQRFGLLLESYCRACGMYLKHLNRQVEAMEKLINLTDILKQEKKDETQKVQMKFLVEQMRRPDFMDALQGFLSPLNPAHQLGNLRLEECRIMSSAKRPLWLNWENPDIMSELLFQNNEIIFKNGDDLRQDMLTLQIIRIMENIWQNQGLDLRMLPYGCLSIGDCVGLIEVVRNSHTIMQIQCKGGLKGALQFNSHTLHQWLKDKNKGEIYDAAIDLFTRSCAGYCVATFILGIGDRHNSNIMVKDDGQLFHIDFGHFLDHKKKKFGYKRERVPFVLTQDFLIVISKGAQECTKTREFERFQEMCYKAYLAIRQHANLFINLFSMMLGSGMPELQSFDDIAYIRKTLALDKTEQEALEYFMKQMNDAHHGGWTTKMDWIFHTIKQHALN
Sequence (Q63787 whole entry partner): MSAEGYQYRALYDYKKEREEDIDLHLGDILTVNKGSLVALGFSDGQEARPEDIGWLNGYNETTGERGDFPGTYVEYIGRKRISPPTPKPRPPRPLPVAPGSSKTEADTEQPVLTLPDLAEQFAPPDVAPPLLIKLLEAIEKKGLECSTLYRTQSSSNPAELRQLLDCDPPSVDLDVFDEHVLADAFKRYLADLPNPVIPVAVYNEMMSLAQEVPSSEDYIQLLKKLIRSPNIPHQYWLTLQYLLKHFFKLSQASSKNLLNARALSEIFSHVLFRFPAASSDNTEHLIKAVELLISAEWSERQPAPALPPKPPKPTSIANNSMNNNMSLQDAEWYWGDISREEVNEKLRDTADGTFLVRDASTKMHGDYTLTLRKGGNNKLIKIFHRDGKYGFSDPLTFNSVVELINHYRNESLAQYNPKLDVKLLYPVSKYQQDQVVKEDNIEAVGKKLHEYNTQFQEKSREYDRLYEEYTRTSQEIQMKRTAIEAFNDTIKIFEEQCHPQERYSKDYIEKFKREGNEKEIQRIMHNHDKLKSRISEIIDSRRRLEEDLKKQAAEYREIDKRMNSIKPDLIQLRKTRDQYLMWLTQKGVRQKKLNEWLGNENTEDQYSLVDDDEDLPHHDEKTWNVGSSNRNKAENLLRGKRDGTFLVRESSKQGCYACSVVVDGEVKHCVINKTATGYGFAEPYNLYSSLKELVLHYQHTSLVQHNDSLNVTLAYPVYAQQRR
Experiment: Cellular assay H1, p-Akt (S473) in Rat-1 cells, Surefire format
Format: cell-based
Details: non-asterisked data: version H1 (Surefire format), Rat-1 cells; read-out: Assay H PI3Kα IC50

COMPOUND	IC50
COCCCNS(=O)(=O)c1ccc(C)c(-c2cnc(N)c(-c3ccnc(C)c3)n2)c1	2.73 µM
Cc1ccc(S(=O)(=O)NCCC(C)(C)O)cc1-c1cnc(N)c(-n2cnc(C3CC3)n2)n1	1.1 µM
Cc1ccc(S(=O)(=O)NCCC(C)(C)O)cc1-c1cnc(N)c(-c2cnn(Cc3ccncc3)c2)n1	5.04 µM
CCN1CCC[C@H]1CNS(=O)(=O)c1ccc(C)c(-c2cnc(N)c(-c3cn(C)nc3C)n2)c1	> 10 µM
Cc1ccc(S(=O)(=O)NCCC(C)(C)O)cc1-c1cnc(N)c(-c2cc(Cl)cnc2F)n1	3.85 µM
Cc1cc(-c2nc(-c3cc(S(=O)(=O)NC4CCNC(=O)C4)ccc3C)cnc2N)ccn1 (centres unmarked)	> 10 µM
Cc1cc(-c2nc(-c3cc(S(=O)(=O)NCCCCCO)ccc3C)cnc2N)ccn1	7.6 µM
Cc1cc(-c2nc(-c3cc(S(=O)(=O)NC[C@H]4CCCO4)ccc3C)cnc2N)ccn1	4.29 µM

* * *

Target: PI 3-kinase beta (Homo sapiens, UniProt P42338)
Sequence (P42338 whole entry): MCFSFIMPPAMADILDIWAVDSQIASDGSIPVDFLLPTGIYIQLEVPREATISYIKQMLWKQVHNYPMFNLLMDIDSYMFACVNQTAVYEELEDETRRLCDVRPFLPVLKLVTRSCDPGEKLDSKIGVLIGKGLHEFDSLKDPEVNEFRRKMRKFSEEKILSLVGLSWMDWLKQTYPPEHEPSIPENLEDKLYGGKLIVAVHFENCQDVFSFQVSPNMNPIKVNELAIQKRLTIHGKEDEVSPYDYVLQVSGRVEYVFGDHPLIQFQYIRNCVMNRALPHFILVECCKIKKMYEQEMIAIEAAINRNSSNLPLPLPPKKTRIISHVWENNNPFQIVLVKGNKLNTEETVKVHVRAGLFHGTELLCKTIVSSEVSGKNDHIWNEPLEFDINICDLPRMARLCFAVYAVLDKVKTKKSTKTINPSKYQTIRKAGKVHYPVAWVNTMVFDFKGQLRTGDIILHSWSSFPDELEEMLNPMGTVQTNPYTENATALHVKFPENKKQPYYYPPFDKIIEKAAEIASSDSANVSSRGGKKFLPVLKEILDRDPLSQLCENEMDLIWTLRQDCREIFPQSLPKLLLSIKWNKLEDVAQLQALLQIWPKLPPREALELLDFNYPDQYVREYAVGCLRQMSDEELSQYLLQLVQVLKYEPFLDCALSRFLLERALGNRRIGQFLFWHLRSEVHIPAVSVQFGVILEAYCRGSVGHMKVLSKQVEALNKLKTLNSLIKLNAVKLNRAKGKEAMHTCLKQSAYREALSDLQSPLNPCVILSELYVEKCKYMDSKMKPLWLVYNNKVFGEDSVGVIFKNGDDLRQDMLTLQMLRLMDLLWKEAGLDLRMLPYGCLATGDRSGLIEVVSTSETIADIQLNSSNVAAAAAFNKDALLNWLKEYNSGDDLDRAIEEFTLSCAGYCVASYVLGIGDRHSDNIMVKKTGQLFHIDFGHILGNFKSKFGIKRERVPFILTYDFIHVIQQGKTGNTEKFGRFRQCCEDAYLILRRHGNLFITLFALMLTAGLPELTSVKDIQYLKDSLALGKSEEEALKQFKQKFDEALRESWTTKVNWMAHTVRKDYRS
Sequence (P27986 461-568 partner): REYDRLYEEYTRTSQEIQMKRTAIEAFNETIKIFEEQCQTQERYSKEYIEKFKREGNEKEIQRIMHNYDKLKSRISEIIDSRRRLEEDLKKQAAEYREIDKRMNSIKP
Experiment: Kinase Glo Luminescent Kinase Assay (Kglo), assay B
Format: biochemical
Settings: read-out: Assay B PI3Kβ IC50
pIC50: −log10 of the molar value.
Parameter: pIC50. Scope: all listed entries.

MOLECULE	VALUE PREFIX	pIC50
Cc1ccc(S(=O)(=O)NCCC2(O)CCCCC2)cc1-c1cnc(N)c(-n2cncn2)n1	=	5.85
Cc1ccc(S(=O)(=O)NCCC(C)(C)O)cc1-c1cnc(N)c(-c2ccc(CO)s2)n1	=	6.03
Cc1cc(-c2nc(-c3cc(S(=O)(=O)NCCN4CCCC4)ccc3C)cnc2N)ccn1	<	5.04
Cc1ncc(-c2nc(-c3cc(S(=O)(=O)N4CCNC(C(F)(F)F)C4)ccc3C)cnc2N)s1 (centres unmarked)	=	6.33
Cc1ncc(-c2nc(-c3cc(S(=O)(=O)N[C@H]4CC[C@@H](O)CC4)ccc3C)cnc2N)s1	=	6.57
Cc1ccc(S(=O)(=O)NCC2(C)CCCO2)cc1-c1cnc(N)c(-c2cn(C)nc2C)n1 (centres unmarked)	=	5.77
Cc1ccc(S(=O)(=O)NCCC(O)C(F)(F)F)cc1-c1cnc(N)c(-c2cnn(C)c2)n1 (centres unmarked)	=	5.38
CCN1CCC[C@@H]1CNS(=O)(=O)c1ccc(C)c(-c2cnc(N)c(-n3cncn3)n2)c1	=	5.82
